test-name: Single-dose pharmacokinetics of apixaban in plasma and urine
Assay type: in vivo, human
run-conditions: male, human, plasma and urine, oral, renal clearance, Japanese subjects, across doses
attribute-measured: CL renal (mL/min)
Value expressed in mL/min; do not type the unit.

Incoming: Query (molecule): COc1ccc(-n2nc(C(N)=O)c3c2C(=O)N(c2ccc(N4CCCCC4=O)cc2)CC3)cc1 ; field requested: CL renal
Outgoing: 18.3

====

test-name: Single-dose pharmacokinetics of apixaban in plasma and urine
Format: in vivo, human
run-conditions: male, human, plasma, oral, mean T1/2 values across doses, Caucasian subjects, 2.5–50 mg
attribute-measured: half-life

Incoming: # query: half-life of entry COc1ccc(-n2nc(C(N)=O)c3c2C(=O)N(c2ccc(N4CCCCC4=O)cc2)CC3)cc1
Outgoing: 8.9 to 16.1 h
